Source listed as patent US10077261B2.

Lab note: IC50 readings collected with Fatty Acid Synthase Keto-reductase Domain (FASN KR) (Homo sapiens, UniProt P49327) for the following compounds.
Sequence (P49327 whole entry, the tested form may be a part): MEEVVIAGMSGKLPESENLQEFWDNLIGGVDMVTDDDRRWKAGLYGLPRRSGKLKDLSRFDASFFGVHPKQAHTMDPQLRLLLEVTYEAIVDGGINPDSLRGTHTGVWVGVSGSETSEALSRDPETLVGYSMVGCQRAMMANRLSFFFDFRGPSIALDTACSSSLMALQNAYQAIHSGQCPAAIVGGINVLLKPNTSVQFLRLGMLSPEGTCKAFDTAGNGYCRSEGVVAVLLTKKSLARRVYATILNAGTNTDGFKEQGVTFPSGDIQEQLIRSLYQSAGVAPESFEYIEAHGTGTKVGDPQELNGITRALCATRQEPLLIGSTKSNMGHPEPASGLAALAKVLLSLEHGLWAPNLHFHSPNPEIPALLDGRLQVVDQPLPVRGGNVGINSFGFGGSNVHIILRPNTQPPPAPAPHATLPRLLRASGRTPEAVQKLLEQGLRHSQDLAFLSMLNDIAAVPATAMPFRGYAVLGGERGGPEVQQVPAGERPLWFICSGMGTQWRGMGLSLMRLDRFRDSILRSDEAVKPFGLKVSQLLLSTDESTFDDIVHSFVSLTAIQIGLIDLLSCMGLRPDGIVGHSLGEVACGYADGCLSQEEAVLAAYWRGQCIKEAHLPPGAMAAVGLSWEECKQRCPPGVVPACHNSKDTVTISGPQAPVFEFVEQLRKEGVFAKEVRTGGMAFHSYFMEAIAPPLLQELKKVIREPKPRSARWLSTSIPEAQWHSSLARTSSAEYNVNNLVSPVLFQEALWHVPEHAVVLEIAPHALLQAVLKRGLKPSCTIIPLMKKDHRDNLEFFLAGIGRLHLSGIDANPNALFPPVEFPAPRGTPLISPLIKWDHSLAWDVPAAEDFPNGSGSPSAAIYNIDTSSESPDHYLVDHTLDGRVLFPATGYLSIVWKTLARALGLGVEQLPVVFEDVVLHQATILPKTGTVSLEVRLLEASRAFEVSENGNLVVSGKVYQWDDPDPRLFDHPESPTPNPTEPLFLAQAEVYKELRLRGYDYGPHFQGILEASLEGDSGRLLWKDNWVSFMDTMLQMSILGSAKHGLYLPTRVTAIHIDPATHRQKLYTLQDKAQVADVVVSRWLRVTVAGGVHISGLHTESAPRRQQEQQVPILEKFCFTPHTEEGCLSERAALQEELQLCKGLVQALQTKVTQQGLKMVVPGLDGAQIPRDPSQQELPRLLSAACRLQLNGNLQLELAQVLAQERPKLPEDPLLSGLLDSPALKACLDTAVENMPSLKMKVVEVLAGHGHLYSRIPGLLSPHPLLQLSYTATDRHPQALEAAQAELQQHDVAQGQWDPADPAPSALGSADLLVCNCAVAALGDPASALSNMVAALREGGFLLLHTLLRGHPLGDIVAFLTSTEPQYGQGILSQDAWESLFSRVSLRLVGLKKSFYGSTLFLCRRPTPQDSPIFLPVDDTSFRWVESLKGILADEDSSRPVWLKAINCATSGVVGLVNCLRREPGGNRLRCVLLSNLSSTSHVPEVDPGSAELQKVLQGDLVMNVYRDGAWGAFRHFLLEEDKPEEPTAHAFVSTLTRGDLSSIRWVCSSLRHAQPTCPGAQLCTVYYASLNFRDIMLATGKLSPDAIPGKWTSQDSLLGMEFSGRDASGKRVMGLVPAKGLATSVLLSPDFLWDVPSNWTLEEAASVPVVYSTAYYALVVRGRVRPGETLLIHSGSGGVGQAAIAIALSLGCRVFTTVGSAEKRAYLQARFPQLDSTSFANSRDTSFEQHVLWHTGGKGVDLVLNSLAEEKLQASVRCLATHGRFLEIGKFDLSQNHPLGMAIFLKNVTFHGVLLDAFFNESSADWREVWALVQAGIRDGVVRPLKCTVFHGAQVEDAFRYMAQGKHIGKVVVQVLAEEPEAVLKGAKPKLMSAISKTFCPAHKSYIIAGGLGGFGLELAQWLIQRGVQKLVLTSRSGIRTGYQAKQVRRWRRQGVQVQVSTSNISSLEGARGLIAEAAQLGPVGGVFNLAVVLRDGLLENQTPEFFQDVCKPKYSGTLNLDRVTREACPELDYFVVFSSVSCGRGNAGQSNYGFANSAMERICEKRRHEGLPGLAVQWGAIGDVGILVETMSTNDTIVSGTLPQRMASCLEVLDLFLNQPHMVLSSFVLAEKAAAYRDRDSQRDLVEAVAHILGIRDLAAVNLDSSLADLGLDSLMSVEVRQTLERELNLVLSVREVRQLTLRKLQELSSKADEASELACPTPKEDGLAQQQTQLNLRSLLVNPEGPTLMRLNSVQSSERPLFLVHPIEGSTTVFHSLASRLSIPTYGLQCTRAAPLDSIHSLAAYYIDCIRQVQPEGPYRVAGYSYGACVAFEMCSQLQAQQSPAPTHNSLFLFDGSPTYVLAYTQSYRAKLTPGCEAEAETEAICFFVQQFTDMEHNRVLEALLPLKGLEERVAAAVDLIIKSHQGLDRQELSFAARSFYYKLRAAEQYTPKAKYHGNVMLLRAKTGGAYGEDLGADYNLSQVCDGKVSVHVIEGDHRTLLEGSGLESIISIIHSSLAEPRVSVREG
Property Name: IC50 (nM)

Answered cases to consult:
CS(=O)(=O)N1CCC2(CC1)N=C(c1ccc(-c3ccc4[nH]ccc4c3)cc1)N(CC1CN(C(=O)C3CC3)C1)C2=O [compound 762]; 759
Cc1cc(-c2ccc3sc(C)c(C)c3c2)ccc1C1=NC2(CC2)C(=O)N1CC1CN(C(=O)C2CC2)C1 [compound 290]; 331
O=C(C1CC1)N1CC[C@@H](CN2C(=O)C3(CC3)N=C2c2ccc(-c3ccc4[nH]ccc4c3)nc2)C1 [compound 402]; 302

a. Cn1cc2ccc(-c3ccc(C4=NC5(CC5)C(=O)N4CC4CN(C(=O)C5CC5)C4)c(F)c3)cc2n1 [compound 227]
b. O=C(C1CC1)N1CC[C@@H](CN2C(=O)C3(CC3)N=C2c2ccc(-c3ccc(F)c(Cl)c3)cc2)C1 [compound 209]
input: Name the one with the greater IC50 value, either a or b as given. Please respond with the label that marks your chosen entry.
output: b

a. O=C(C1CC1)N1CC[C@@H](CN2C(=O)C3(CC3)N=C2c2ccc(-c3ccc4cccc(F)c4c3)cc2F)C1 [compound 260]
b. O=C(C1CC1)N1CC[C@@H](CN2C(=O)C3(CC3)N=C2c2ccc(-c3cccc4ncccc34)cc2F)C1 [compound 250]
c. Cc1cc(-c2ccc3c(c2)c(Cl)nn3C)ccc1C1=NC2(CC2)C(=O)N1CC1CN(C(=O)C2CC2)C1 [compound 591]
input: Hey, quick one: sort these by IC50, largest value first please. Hello, could you send the labels back in the order asked? Thank you.
output: c, b, a

I. O=C(C1CC1)N1CC(CN2C(=O)C3(CC3)N=C2c2ccc(-c3nc4cc(F)c(F)cc4s3)cc2F)C1 [compound 639]
II. Cc1cc2cc(-c3ccc(C4=NC5(CC5)C(=O)N4C[C@@H]4CCN(C(=O)C5CC5)C4)cc3F)ccc2o1 [compound 387]
input: Kindly compare I with II and tell me which has the lower IC50 figure. Indicate your choice by writing its label.
output: II
